Listed here: items and their measured pIC50 (REN).
EXPERIMENTAL_TARGET: RORγ (UniProt P51449)
Construct: hRORg-LBD|aa259-518|NP_005051.2; hRORgt|aa1-497|NP_001001523 (RORg, t isoform, 497aa); mRORg-LBD|aa264-516|NP_035411
Type: cell-based
CONDITION_INFO: renilla normalised (RENnorm) luciferase, 293T cells, 16 h
Reply with the value as a number alone.

Solved cases below.
LINE_NOTATION: Cn1c(C(N)=O)cc(-c2cc(C(C)(C)C)cc(C(C)(C)C)c2)c1CC1CCCCC1
MEASURED: 6.1
--
LINE_NOTATION: Cc1c(C(=O)NCC(C)(C)O)cn(-c2cc(C(C)(C)C)cc(C3(C)CC3)c2)c1CC1CCCCC1
MEASURED: 7.5
--
LINE_NOTATION: C[C@@H](O)CNC(=O)c1nc(-c2cc(C(C)(C)C)c(O)c(C(C)(C)C)c2)n(CC2CCCCC2)n1
MEASURED: 5.9
--
LINE_NOTATION: CC(C)(C)NS(=O)(=O)c1ccc(-c2cc(C(=O)NCCC(C)(C)C(=O)O)nn2CC2CCCCC2)cc1C(C)(C)C
MEASURED: 6.7

Input: Given the molecule `Cc1c(C(=O)NC2CCOCC2)cc(-c2ccc(S(=O)(=O)NC(C)(C)C)c(C(C)(C)C)c2)n1CC(C)(C)C` , what is its reported pIC50 (REN)?
Output: 6.4

Input: Given the molecule `Cc1c(C(=O)N[C@H]2C[C@H](C(=O)O)C2)cn(-c2ccc(S(=O)(=O)NC(C)(C)C)c(C(C)(C)C)c2)c1CC1CCCCC1` , what is its reported pIC50 (REN)?
Output: 7.3

Input: Given the molecule `CC(C)(C)c1cc(-c2nc(C(=O)NC3COC3)nn2CC2CCCCC2)cc(C(C)(C)C)c1O` , what is its reported pIC50 (REN)?
Output: 6.4

Origin of measurements: patent US9458104B2
